Origin of values: patent US20240409645A1

Reported OD (PE binding ELISA) is given for each of the following binders.
Molecular target: T1, human IL-2Rα (human, UniProt P01589 22-240, limits assumed)
T1 construct: recombinant protein; also called hu IL-2R; human IL-2Ra
T1 sequence: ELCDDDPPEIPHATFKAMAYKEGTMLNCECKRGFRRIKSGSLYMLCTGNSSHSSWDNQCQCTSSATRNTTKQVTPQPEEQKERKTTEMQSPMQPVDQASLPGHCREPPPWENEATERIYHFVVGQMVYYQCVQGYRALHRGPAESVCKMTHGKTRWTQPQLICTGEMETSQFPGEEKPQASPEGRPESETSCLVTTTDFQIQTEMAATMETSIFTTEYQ
Assay: ELISA, P.E. on coated antigen
Hi! Could you send only the number? It should be in OD450 nm, unit omitted.

Below: 3 binders and their reported OD (PE binding ELISA).
binder="12-MP05B12 (VHH, periplasmic extract; also called FJ1427_P035MP05B12) VHH: QVQLVESGGGLVQAGGSLRLSCAASGFTFDGYAIGWFRQAPGKEREGVSYITGSDGSTYYADSVKGRFTISSNNAKNTVYLHMNSLKPDDAAVYYCAIDRLGSRGAYVPIWWRSSDMDLWGKGTLVTVSS" attribute_measured="OD (PE binding ELISA)" assay_value=2.14
binder="FJ1427_P035MP05D04 (VHH, periplasmic extract; also called clone nr) VHH: QLQLVESGGGLVQAGGSLRLSCAASGLTFDGYAIGWFRQASGKEREGVSYINGRDGSTFYADSVKGRFIISSDNAKNTVDLQMNSLNPDDAAVYYCAVDRLGSRGAYVSSWWRSPDMDLWGKGTLVTVSS" attribute_measured="OD (PE binding ELISA)" assay_value=1.91
binder="FJ1427_P035MP01H08 (VHH, periplasmic extract; also called clone nr; 64) VHH: EVQLVESGGRLVQSGGSLRLSCAASGRAFSTHNMGWFRRAPGKEREFVAAISWNVDNKLYANSVKGRFAISRDNGRNMVYLQMNSLKPEDTAVYYCAADNIPLSSDMRATATEYDVWGQGTQVTVSS" attribute_measured="OD (PE binding ELISA)" assay_value=2.6

### Prompt I am curious: what OD (PE binding ELISA) value has been reported for FJ1427_P035MP05E04 (VHH, periplasmic extract; also called clone nr) VHH: QVQLVESGGGLVQAGGSLRLSCAASGGTFRTRNMGWFRRAPGKEREFVAAVSWSVDNKLYAGSVKGRFTISRDNGRNMVYLQMNSLKPEDTAVYYCAADNIPLSSDMRPTATEFGYWGQGTRVTVSS ?
### Response 2.38

### Prompt // query OD (PE binding ELISA) value for entry 07-MP01G08 (VHH, periplasmic extract; also called FJ1427_P035MP01G08) VHH: EVQLVESGGGLVQAGGSLRLSCAASGRAFSMYNMGWFRQAPGKEREFVAATGWSGANTPYADSVKGRFTISRDNTQNTVYLQMNSLKPEDTATYYCAADSIRLRSDVTRIPLEYDYWGQGTQVTVSS
### Response 2.57

### Prompt # input binder: FJ1427_P035MP01F07 (VHH, periplasmic extract; also called clone nr; 54) VHH: QVQLVESGGGLVQAGGSLRLSCAATGLTFRQHNMGWFRRAPGKEREFVAAISWNVGSTYFADSVKGRFTISRDNGKNMVYLQMNSLKPEDTAVYYCAADNIPLASDMRATATAYGYWGQGTQVTVSS ; wanted: its OD (PE binding ELISA)
### Response 2.76

### Prompt For FJ1427_P035MP01B01 (VHH, periplasmic extract; also called clone nr) VHH: EVQLVESGGGWVQAGDSLRLSCAASGRTFRNYVMGWFRQVPGKEREFLSVITSLGGTVYADSVANRFTISRDNPKDTVYLQMDSLKPEDTAVYYCAADRGPARYISASDVDYWGQGTQVTASS , what is its reported OD (PE binding ELISA)?
### Response 2.78

### Prompt Item under review: FJ1427_P035MP05A10 (VHH, periplasmic extract; also called clone nr) VHH: QLQLVESGGGLVQAGGSLRLSCTASGLTFDGYAIGWFRQAPGKEREGVSYITGSDGSTYYIDSVKGRFTISSDIAKSTVYLQMNSLKPEDTAVYYCAVDRLGSRGLYASSWWRSGDMDLWGKGTLVTVSS . Reported OD (PE binding ELISA)?
### Response 2.18
